Assay: PK after oral administration in liquid-filled capsules in dogs
Type: in vivo, beagle dogs
Conditions: male, beagle, dog, plasma, po, 7.5 mg, fasted, pentagastrin-pretreated male beagle dogs; oral LFC 7.5 mg fixed dose; 100% glycerol monocaprylocaprate; 100 mg/mL; mean ± SD, n=6
VALUE TYPE: AUC(0-inf)

Q: Please give measured AUC(0-inf) of the following entry: CC(C)(C#Cc1ccc(-c2ccc(Cl)c3c(NS(C)(=O)=O)nn(CC(F)(F)F)c23)c([C@H](Cc2cc(F)cc(F)c2)NC(=O)Cn2nc(C(F)(F)F)c3c2C(F)(F)[C@@H]2C[C@H]32)n1)S(C)(=O)=O
Ans: 1.87 µM·h

###

Assay: PK after oral administration in liquid-filled capsules in dogs
Format: in vivo, beagle dogs
Conditions: male, beagle, dog, plasma, po, 7.5 mg, fasted, pentagastrin-pretreated male beagle dogs; oral LFC 7.5 mg fixed dose; 100% glycerol monocaprylocaprate; 50 mg/mL; mean ± SD, n=6
VALUE TYPE: AUC(0-inf) (µM·h)
Lab book: enter the figure in µM·h, no units written.

Q: Indicate its recorded AUC(0-inf); the compound in question is CC(C)(C#Cc1ccc(-c2ccc(Cl)c3c(NS(C)(=O)=O)nn(CC(F)(F)F)c23)c([C@H](Cc2cc(F)cc(F)c2)NC(=O)Cn2nc(C(F)(F)F)c3c2C(F)(F)[C@@H]2C[C@H]32)n1)S(C)(=O)=O
Ans: 2.33

###

Assay: PK after subcutaneous administration of solutions in rats
Type: in vivo, Wistar Han rat
Settings: Wistar Han, rat, plasma, sc, 50 mg/kg, rat; SC 50 mg/kg; 300 mg/mL solution (w/w %: 9.8 water, 65.0 PEG 300, 25.2 Formula (Ia)); mean ± SD, n=3; read-out: Cd168
VALUE TYPE: concentration at 168 d (nM)
Note: unit nM is implicit; provide only the numeric part.

Q: Specify measured concentration at 168 d for CC(C)(C#Cc1ccc(-c2ccc(Cl)c3c(NS(C)(=O)=O)nn(CC(F)(F)F)c23)c([C@H](Cc2cc(F)cc(F)c2)NC(=O)Cn2nc(C(F)(F)F)c3c2C(F)(F)[C@@H]2C[C@H]32)n1)S(C)(=O)=O [Formula (Ia)] .
Ans: 78.4

###

Experiment: PK after subcutaneous administration of solutions in dogs
Type: in vivo, Beagle dog
Conditions: male, beagle, dog, plasma, sc, 12 mg/kg, dog #1; 96.0 h; SC 12 mg/kg, 400 mg/mL in 15% water/85% PEG 300
VALUE TYPE: concentration at 96 h (nM)
The reply should contain only the number, in nM.

Q: Identify measured concentration at 96 h corresponding to CC(C)(C#Cc1ccc(-c2ccc(Cl)c3c(NS(C)(=O)=O)nn(CC(F)(F)F)c23)c([C@H](Cc2cc(F)cc(F)c2)NC(=O)Cn2nc(C(F)(F)F)c3c2C(F)(F)[C@@H]2C[C@H]32)n1)S(C)(=O)=O
Ans: 58.9

###

Assay: PK after subcutaneous administration of solutions in rats
Format: in vivo, Wistar Han rat
Conditions: male, Wistar Han, rat, plasma, sc, 50 mg/kg, rat mean, n=3; 72 h; SC 50 mg/kg, 300 mg/mL in 15% water/85% PEG 300
VALUE TYPE: concentration at 72 h (nM)
State the answer as a number, implicitly in nM.

Q: Respond only with concentration at 72 h recorded for CC(C)(C#Cc1ccc(-c2ccc(Cl)c3c(NS(C)(=O)=O)nn(CC(F)(F)F)c23)c([C@H](Cc2cc(F)cc(F)c2)NC(=O)Cn2nc(C(F)(F)F)c3c2C(F)(F)[C@@H]2C[C@H]32)n1)S(C)(=O)=O
Ans: 67.5

###

Assay: PK after subcutaneous administration of solutions in rats
Assay type: in vivo, Wistar Han rat
Conditions: male, Wistar Han, rat, plasma, sc, 50 mg/kg, rat #2; 840 h; SC 50 mg/kg, 300 mg/mL in 15% water/85% PEG 300
VALUE TYPE: concentration at 840 h (nM)
Express your answer in nM, writing the number without its unit.

Q: In one line, give reported concentration at 840 h of the entry CC(C)(C#Cc1ccc(-c2ccc(Cl)c3c(NS(C)(=O)=O)nn(CC(F)(F)F)c23)c([C@H](Cc2cc(F)cc(F)c2)NC(=O)Cn2nc(C(F)(F)F)c3c2C(F)(F)[C@@H]2C[C@H]32)n1)S(C)(=O)=O .
Ans: 316

###

Assay: PK after subcutaneous administration of solutions in dogs
Format: in vivo, Beagle dog
Conditions: male, beagle, dog, plasma, sc, 12 mg/kg, dog #3; 1.0 h; SC 12 mg/kg, 400 mg/mL in 15% water/85% PEG 300
VALUE TYPE: concentration at 1 h
Provide the measurement as a number trailed by its unit.

Q: Give concentration at 1 h for CC(C)(C#Cc1ccc(-c2ccc(Cl)c3c(NS(C)(=O)=O)nn(CC(F)(F)F)c23)c([C@H](Cc2cc(F)cc(F)c2)NC(=O)Cn2nc(C(F)(F)F)c3c2C(F)(F)[C@@H]2C[C@H]32)n1)S(C)(=O)=O
Ans: 1.2 nM

###

Experiment: PK after subcutaneous administration of solutions in dogs
Assay type: in vivo, Beagle dog
Conditions: male, beagle, dog, plasma, sc, 12 mg/kg, dog #1; 72.0 h; SC 12 mg/kg, 400 mg/mL in 15% water/85% PEG 300
VALUE TYPE: concentration at 72 h (nM)
Report the value in nM with no unit label.

Q: // Input: CC(C)(C#Cc1ccc(-c2ccc(Cl)c3c(NS(C)(=O)=O)nn(CC(F)(F)F)c23)c([C@H](Cc2cc(F)cc(F)c2)NC(=O)Cn2nc(C(F)(F)F)c3c2C(F)(F)[C@@H]2C[C@H]32)n1)S(C)(=O)=O [Formula (Ia)] . Output its concentration at 72 h only.
Ans: 62.8

###

Test: PK after subcutaneous administration of solutions in rats
Format: in vivo, Wistar Han rat
Conditions: male, Wistar Han, rat, plasma, sc, 50 mg/kg, rat #1; 72 h; SC 50 mg/kg, 300 mg/mL in 15% water/85% PEG 300
VALUE TYPE: concentration at 72 h
Write the figure, then the unit, nothing else.

Q: Report concentration at 72 h, nothing else, for this molecule: CC(C)(C#Cc1ccc(-c2ccc(Cl)c3c(NS(C)(=O)=O)nn(CC(F)(F)F)c23)c([C@H](Cc2cc(F)cc(F)c2)NC(=O)Cn2nc(C(F)(F)F)c3c2C(F)(F)[C@@H]2C[C@H]32)n1)S(C)(=O)=O
Ans: 65.6 nM

###

Assay: PK after oral administration in liquid-filled capsules in dogs
Format: in vivo, beagle dogs
Details: male, beagle, dog, plasma, po, 7.5 mg, fasted, pentagastrin-pretreated male beagle dogs; oral LFC 7.5 mg fixed dose; 100% glycerol monocaprylocaprate; 50 mg/mL; mean ± SD, n=6; read-out: AUC0-72h
Method: A single dose of the compound of Formula (Ia), formulated as liquid-filled capsules (LFC) containing either 100% glycerol monocaprylocaprate or 20% caprylocaproyl polyoxyl-8 glycerides and 80% glycerol monocaprylocaprate was administered orally at 7.5 mg fixed dose to 6 male beagle dogs (Table 9). At 100 mg/mL of the compound of Formula (Ia), the AUCinf increased with increasing glycerol monocaprylocaprate content. […]
VALUE TYPE: AUC(0-t) (µM·h)
Answer format: numeric, µM·h implied, no suffix.

Q: Identify measured AUC(0-t) associated with CC(C)(C#Cc1ccc(-c2ccc(Cl)c3c(NS(C)(=O)=O)nn(CC(F)(F)F)c23)c([C@H](Cc2cc(F)cc(F)c2)NC(=O)Cn2nc(C(F)(F)F)c3c2C(F)(F)[C@@H]2C[C@H]32)n1)S(C)(=O)=O [Formula (Ia)]
Ans: 2.18

###

Test: PK after subcutaneous administration of solutions in dogs
Assay type: in vivo, Beagle dog
Settings: beagle, dog, plasma, sc, 12 mg/kg, dog; SC 12 mg/kg; 300 mg/mL solution (w/w %: 9.8 water, 65.0 PEG 300, 25.2 Formula (Ia)); mean ± SD, n=3; read-out: C84d
VALUE TYPE: concentration at 84 d

Q: Respond only with concentration at 84 d recorded for CC(C)(C#Cc1ccc(-c2ccc(Cl)c3c(NS(C)(=O)=O)nn(CC(F)(F)F)c23)c([C@H](Cc2cc(F)cc(F)c2)NC(=O)Cn2nc(C(F)(F)F)c3c2C(F)(F)[C@@H]2C[C@H]32)n1)S(C)(=O)=O
Ans: 21.7 nM

###

Experiment: PK after subcutaneous administration of solutions in dogs
Assay type: in vivo, Beagle dog
Conditions: male, beagle, dog, plasma, sc, 12 mg/kg, male beagle dog; single SC 12 mg/kg; 400 mg/mL in 85% PEG300 and 15% water; mean ± SD, n=3; read-out: AUC0-168h
Method: Formulations containing the compound of Formula (Ia) were prepared as aqueous solutions or oral formulations and administered subcutaneously to rats, dogs, cynomolgus monkey, and/or rhesus monkey. A solution of the compound of Formula (Ia) in 10% ethanol, 13% water, and 77% PEG 200 (400 mg/mL) was prepared. The solution was administered subcutaneously to dogs at a dose of 12 mg/kg and rats at a dose of 50 mg/kg and the pharmacokinetic (PK) profile was determined. […]
VALUE TYPE: AUC(0-t) (µM·h)
State the answer as a number, implicitly in µM·h.

Q: Answer with the recorded AUC(0-t) of CC(C)(C#Cc1ccc(-c2ccc(Cl)c3c(NS(C)(=O)=O)nn(CC(F)(F)F)c23)c([C@H](Cc2cc(F)cc(F)c2)NC(=O)Cn2nc(C(F)(F)F)c3c2C(F)(F)[C@@H]2C[C@H]32)n1)S(C)(=O)=O only.
Ans: 5.82
